// compounds with IC50 on RAC-alpha serine/threonine-protein kinase (Homo sapiens, UniProt P31749), multi-source literature
Record the value in nM, omitting the unit from your answer.

Previously resolved entries follow.
- Compound: "Cn1ncc(Cl)c1-c1cc(C(=O)N[C@@H]2CNC(CC(=O)O)C[C@H]2c2ccc(Cl)c(Cl)c2)oc1Cl (stereo partly drawn)"
  IC50 [nM]: 1
- Compound: "COc1cncc(-c2ccc(NCCNC(C)C)c(C3CCN(c4ncnc5c4C(C)C(=O)N5)CC3)n2)c1 (stereo not drawn)"
  IC50 [nM]: 2.1
- Compound: "CCc1cnn(C)c1-c1ccc(C(=O)N[C@@H]2CNCC[C@H]2c2cccc(F)c2)s1"
  IC50 [nM]: 4
- Compound: "CN(C)C[C@H](Cc1cccc(F)c1)NC(=O)c1cc2c(s1)CCCn1ncc(Cl)c1-2"
  IC50 [nM]: 116
- Compound: "NC(=O)c1cccc2c(N[C@H](CN3CCC3)c3ccc(Br)cc3)ncnc12"
  IC50 [nM]: 48
- Compound: "CC(C)NCC(C(=O)N1CCN(c2ncnc3c2[C@H](C)CC(=O)N3)C[C@@H]1C)c1ccc(Cl)cc1 (stereo in doubt)"
  IC50 [nM]: 167

Pending compound:
// lookup IC50 for `c1ccc(-c2cc3cnc4nc(N5CCOCC5)nn4c3nc2-c2ccc(CN3CCC(c4nnc(-c5ccccn5)[nH]4)CC3)cc2)cc1` 4.6

###

Hi, quick share: literature IC50 data for RAC-alpha serine/threonine-protein kinase (Homo sapiens, UniProt P31749), several sources combined.

Solved cases (6 shown):
- Compound: "N#CCN1C(=O)COc2nc(-c3ccc([C@]4(N)C[C@@H](O)C4)cc3)c(-c3ccccc3)cc21"
  Target Or Test System: "RAC-alpha serine/threonine-protein kinase (Homo sapiens, UniProt P31749)"
  Measured Attribute: "IC50"
  Assay Value: "100 to 1000 nM"
- Compound: "Cn1ncc(Cl)c1-c1ccc(C(=O)N[C@@H]2CNCC[C@H]2c2cccc(F)c2)cc1N"
  Target Or Test System: "RAC-alpha serine/threonine-protein kinase (Homo sapiens, UniProt P31749)"
  Measured Attribute: "IC50"
  Assay Value: "19 nM"
- Compound: "CN1CCOc2nc(-c3ccc(C4(N)CCC4)cc3)c(-c3ccccc3)cc21"
  Target Or Test System: "RAC-alpha serine/threonine-protein kinase (Homo sapiens, UniProt P31749)"
  Measured Attribute: "IC50"
  Assay Value: "100 to 1000 nM"
- Compound: "NC(=O)c1cccc2c(N[C@H](CN3CC(F)C3)c3cccc(Cl)c3)ncnc12"
  Target Or Test System: "RAC-alpha serine/threonine-protein kinase (Homo sapiens, UniProt P31749)"
  Measured Attribute: "IC50"
  Assay Value: "72 nM"
- Compound: "CCc1nnc2n1-c1cc(-c3ccccc3)c(-c3ccc(C4(N)CCC4)cc3)nc1OC2"
  Target Or Test System: "RAC-alpha serine/threonine-protein kinase (Homo sapiens, UniProt P31749)"
  Measured Attribute: "IC50"
  Assay Value: "≤ 100 nM"
- Compound: "CCN1C(=O)COc2nc(-c3ccc([C@]4(N)C[C@@H](O)C4)cc3)c(-c3ccccc3)cc21"
  Target Or Test System: "RAC-alpha serine/threonine-protein kinase (Homo sapiens, UniProt P31749)"
  Measured Attribute: "IC50"
  Assay Value: "100 to 1000 nM"

Lab request: please report IC50 under test system RAC-alpha serine/threonine-protein kinase (Homo sapiens, UniProt P31749) for CCOc1cccc2c1-c1nc(-c3ccc(C4(N)CC(O)(C5CC5)C4)cc3)c(-c3ccccc3)n1CO2 (centres unmarked) 28 nM

What value of IC50 on RAC-alpha serine/threonine-protein kinase (Homo sapiens, UniProt P31749) does `NC1(c2ccc(-c3nc4c(cc3-c3ccccc3)N(Cc3cnc[nH]3)C(=O)CO4)cc2)CCC1` have? 1000 to 10000 nM

###

# IC50 against RAC-alpha serine/threonine-protein kinase (Homo sapiens), merged from multiple literature sources

Some entries whose results are on file:
- Compound: "NC1(c2ccc(-c3nc4c(cc3-c3ccccc3)-c3n[nH]cc3CCC4)cc2)CCC1"
  Assay Value: "100 to 1000 nM"
- Compound: "COCCN1C(=O)COc2nc(-c3ccc(C4(N)CCC4)cc3)c(-c3ccccc3)cc21"
  Assay Value: "100 to 1000 nM"
- Compound: "NC1(c2ccc(-c3nc4c(cc3-c3ccccc3)-n3c(CO)nnc3CO4)cc2)CCC1"
  Assay Value: "≤ 100 nM"
- Compound: "NC1(c2ccc(-c3nc4c(cc3-c3ccccc3)-c3n[nH]c(O)c3CC4)cc2)CCC1"
  Assay Value: "≤ 100 nM"
- Compound: "NC1(c2ccc(-c3nc4n(c3-c3ccccc3)COc3cnccc3-4)cc2)CCC1"
  Assay Value: "5.5 nM"

Quick check: IC50 on RAC-alpha serine/threonine-protein kinase (Homo sapiens), item `Cn1ncc(Cl)c1-c1ccc(C(=O)N[C@@H]2CNCC[C@H]2c2ccc(Cl)c(C(F)(F)F)c2)c(F)c1` ? 9 nM

Provide value of IC50 for this record tested with RAC-alpha serine/threonine-protein kinase (Homo sapiens): `C[C@@H]1CC(=O)Nc2ncnc(N3CC4CCC(C3)N4C(=O)[C@H](CNC3CC3)c3ccc(Cl)cc3)c21` 2.4 nM

Could you share what IC50 was measured for `Cc1c(Oc2cccc(CNC(=O)OC(C)(C)C)c2F)ccc2c1B(O)OC2` , tested on RAC-alpha serine/threonine-protein kinase (Homo sapiens)? > 30000 nM

Tell me reported IC50 for `Cn1cc2c(n1)-c1cc(-c3ccccc3)c(-c3ccc(C4(N)CCC4)cc3)nc1CC2` , tested with RAC-alpha serine/threonine-protein kinase (Homo sapiens). 100 to 1000 nM

Record lookup: for RAC-alpha serine/threonine-protein kinase (Homo sapiens), what IC50 belongs to `NC[C@H](Cc1ccccc1)NC(=O)c1c[nH]c2c1CCc1cnccc1-2` ? < 500 nM

Any idea what IC50 came out for `NC(=O)c1cccc2c(N[C@H](CN3CCC3)c3ccc(Cl)c(F)c3)ncnc12` on RAC-alpha serine/threonine-protein kinase (Homo sapiens)? 7.7 nM

Form field: IC50 recorded for `Cn1ncc(Cl)c1-c1ccc(C(=O)N[C@@H]2CNCC[C@H]2c2cccc(F)c2)cc1OC(F)(F)F` with RAC-alpha serine/threonine-protein kinase (Homo sapiens) (enter value) 21 nM

Quick check: IC50 on RAC-alpha serine/threonine-protein kinase (Homo sapiens), item `N#Cc1cccc([C@@H](CN2CCC2)Nc2ncnc3c(C(N)=O)cccc23)c1` ? 270 nM

Given the entry `C[C@]1(O)C[C@@](N)(c2ccc(-c3nc4c(cc3-c3ccccc3)-n3c(n[nH]c3=O)CO4)cc2)C1` , what IC50 was observed with RAC-alpha serine/threonine-protein kinase (Homo sapiens)? ≤ 100 nM

###

The entries below pair molecules with pIC50 values for RAC-alpha serine/threonine-protein kinase (Homo sapiens), as found in several publications.
# pIC50 is unitless: minus log10 of the molar concentration; print number only

- Molecule: "NC(=O)c1cccc2c(N[C@H](CN3CCC3)c3ccc(F)c(F)c3)ncnc12"
  Assay Value: 8.39
- Molecule: "CCc1cnn(C)c1-c1cc(F)c(C(=O)N[C@@H]2CNCC[C@H]2c2ccc(Cl)c(C(F)(F)F)c2)c(F)c1"
  Assay Value: 7.89
- Molecule: "Cn1ncc(Cl)c1-c1coc(C(=O)N[C@H]2CNC[C@@H]2c2ccc(F)c(F)c2)c1 (racemic)"
  Assay Value: 6.46
- Molecule: "C=Cc1cnn(C)c1-c1ccc(C(=O)N[C@@H]2CNCC[C@H]2c2cccc(F)c2)s1"
  Assay Value: 8.70
- Molecule: "CCc1sc(C(=O)N[C@H]2CNCC[C@@H]2c2cnc3ccccc3c2)cc1-c1c(C(C)C)cnn1C (racemic)"
  Assay Value: 7.06

Any idea what pIC50 was measured for `CN(C)CCn1cc(-c2ccc(F)c(C(F)(F)F)c2)nc1C1CCN(c2ncnc3c2C(C)(C)C(=O)N3)CC1` ? 8.22

Any idea what its pIC50 is? The molecule is CCc1cnn(C)c1-c1cc(C(=O)N[C@H]2CNCC[C@@H]2c2ccc(Cl)cc2)nc(C)n1 (racemic) 6.67

Requested read-out: pIC50. Entry: `COc1cc2c(cc1OCCCl)ncc1c(N)nc(-n3ccnc3)cc12` 6.52

pIC50 for `Cn1ncc(Cl)c1-c1ccc(C(=O)N[C@@H]2CNCC[C@H]2c2ccc(Cl)cc2)cc1C#N` ? 7.68

Fill in: pIC50 of `NC(=O)c1cccc2c(N[C@H](CN3CCC3)c3ccc(C(F)(F)F)c(Cl)c3)ncnc12` is ___ 8.43

pIC50 lookup needed for `NC(=O)c1cccc2c(N[C@H](CN3CCC3)c3cc(F)c(F)cc3F)ncnc12` , thanks. 7.44

Param item = `CCONC(=O)c1ccc2c(c1)OCn1c-2nc(-c2ccc([C@]3(N)C[C@](C)(O)C3)cc2)c1-c1ccccc1` ; retrieve measured pIC50. 8.68
